# Measurement notes: Oral bioavailability in Sprague-Dawley rat at 1 mg/kg
# Format: ADME, organism-based
# Protocol conditions: in vivo
Endpoint name: bioavailability (%)

// worked examples, bioavailability included
- CS(=O)(=O)[C@H]1CCC[C@H](NC(=O)C2CCN(c3nc4cc(Cl)c(C(F)(F)F)cc4o3)CC2)C1: 30
- O=C(N[C@H]1CCC[C@H](CO)C1)C1CCN(c2nc3cc(Cl)c(-c4ccc(Cl)cc4)cc3o2)CC1: 42

a. CC(C)(O)[C@H]1CCC[C@H](NC(=O)C2CCN(c3nc4cc(Cl)c(C(F)(F)F)cc4o3)CC2)C1
b. Cc1cc2oc(N3CCC(C(=O)N[C@H]4CCC[C@H](C(C)(C)O)C4)CC3)nc2cc1Cl
Lower bioavailability: a or b ? API: response body contains the label of the selected item. b
(b: 15%, a: 38%)

----------
# Measurement notes: AUC (infinity) in Sprague-Dawley rat at 1 mg/kg, po
# Type: ADME, organism-based
# Set-up: time infinity, dose 1 mg/kg, route oral
# Protocol conditions: plasma
Endpoint name: AUC(0-inf) (nM·h)

• CC(C)(O)[C@H]1CCC[C@H](NC(=O)C2CCN(c3nc4cc(Cl)c(C(F)(F)F)cc4o3)CC2)C1 = 450

a. CS(=O)(=O)[C@H]1CCC[C@H](NC(=O)C2CCN(c3nc4cc(Cl)c(C(F)(F)F)cc4o3)CC2)C1
b. O=C(N[C@H]1CCC[C@H](CO)C1)C1CCN(c2nc3cc(Cl)c(-c4ccc(Cl)cc4)cc3o2)CC1
Name the one with the greater AUC(0-inf) value, either a or b as given. Please reply using the label of the selected record. b
(b: 1900 nM·h, a: 1100 nM·h)

----------
# Measurement notes: Mean residence time in Sprague-Dawley rat at 1 mg/kg, po
# Format: ADME, organism-based
# Set-up: dose 1 mg/kg, route oral
# Protocol conditions: in vivo
Endpoint name: MRT (h)

These solved cases illustrate the format of a correct answer.
* Cc1cc2oc(N3CCC(C(=O)N[C@H]4CCC[C@H](C(C)(C)O)C4)CC3)nc2cc1Cl | 0.78
* O=C(N[C@H]1CCC[C@H](CO)C1)C1CCN(c2nc3cc(Cl)c(-c4ccc(Cl)cc4)cc3o2)CC1 | 6.8

I. CC(C)(O)[C@H]1CCC[C@H](NC(=O)C2CCN(c3nc4cc(Cl)c(C(F)(F)F)cc4o3)CC2)C1
II. CS(=O)(=O)[C@H]1CCC[C@H](NC(=O)C2CCN(c3nc4cc(Cl)c(C(F)(F)F)cc4o3)CC2)C1
Please indicate which entry, I or II , has the lower recorded MRT value. Write the label of whichever entry you select. I
(I: 3.6 h, II: 6.5 h)

----------
# Measurement notes: Apparent intrinsic clearance in human liver microsomes
# Assay type: ADME, Microsome
# Protocol conditions: read-out: CLH(app)
Endpoint name: CLint scaled (mL/min/kg)

A. CC(C)(O)[C@H]1CCC[C@H](NC(=O)C2CCN(c3nc4cc(Cl)c(C(F)(F)F)cc4o3)CC2)C1
B. CS(=O)(=O)[C@H]1CCC[C@H](NC(=O)C2CCN(c3nc4cc(Cl)c(C(F)(F)F)cc4o3)CC2)C1
C. Cc1cc2oc(N3CCC(C(=O)N[C@H]4CCC[C@H](C(C)(C)O)C4)CC3)nc2cc1Cl
Rank the 3 molecules shown above by CLint scaled, smallest number first. Enter labels, ranked according to the request. B, A, C
(B: 4.6 mL/min/kg, A: 98 mL/min/kg, C: 223 mL/min/kg)

Values from ChEMBL document CHEMBL2321745
